Test system: S10-3 human hepatoma cells
assay_summary: Cell viability / MTT assay
Assay type: cell-based
experimental_parameters: highest concentration tolerated by S10-3 cells, MTT, 120 h
Label scheme for MNTD, maximum nontoxic dose: lower than 0.8 µM is NO, 0.8 µM and above is YES.

{"columns": ["molecule", "class"],
 "data": [
  ["CCN(CC)CCCC(C)Nc1ccnc2cc(Cl)ccc12 (centres unmarked) [CQ, chloroquine]", "NO"],
  ["NC(=O)c1ncn([C@@H]2O[C@H](CO[P@@](=O)(O)O[P@](=O)(O)OP(=O)(O)O)[C@@H](O)[C@H]2O)n1 [RTP, Ribavirin triphosphate]", "YES"],
  ["NC(=O)c1ncn([C@@H]2O[C@H](CO)[C@@H](O)[C@H]2O)n1 [RBV, ribavirin]", "YES"],
  ["C[C@H]1[C@H](OC(=O)CCC(=O)O)O[C@@H]2O[C@@]3(C)CC[C@H]4[C@H](C)CC[C@@H]1[C@@]24OO3 [ART, artesunate]", "YES"]
]}
